Experiment: yeast display, Sf9 membrane polyspecificity reagent, FACS + sequencing; frameworks hold sequencing errors
METRIC_NAME: polyreactivity (PSR sort gate)

Record excerpt, results attached:
Query: Could you please provide reported polyreactivity (PSR sort gate) for `QVQLVESGGGLVQAGGSLRLSCAASGRTYYYNAMGWYREAPGKERELVARISQRTGSTYYADSVKGRFTISRDNAKNTVYLQMNSLKPEDTAVYYCAASSQTRQWTNDYWGQGTQVTVSS` ? Thanks!
Result: high polyreactivity

Query: Find the measured polyreactivity (PSR sort gate) of `QVQLVESGGGLVQAGGSLRLSCAASGGTFIRYAMGWYRQAPGKERELVAAISSSGGSTYYADSVKGRFTISRDNAKNTVYLQMNSLKPEDTAVYYCNGRQSRFKYDYWGQGTQVTVSS` and report it.
Result: high polyreactivity

Query: Respond only with polyreactivity (PSR sort gate) recorded for `QVQLVESGGGLVQAGGSLRLSCAASGSILIYNAMGWYRQAPGKERELVAGISRRGASTYYADSVKGRFTISRDNAKNTVYLQMNSLKPEDTAVYYCAALGKYIVAWAGDYWGQGTQVTVSS`
Result: low polyreactivity

Query: Write down polyreactivity (PSR sort gate) measured for item `QVQLVESGGGLDQAGGSLRLICAASGFTITNNAMGWYRQAPGKEREFVAAISASGGSTYYADSVKGRFTISRDNAKNTVYLQMNSLKPEDTAVYYCAVEPVYIVSEVLFDYWGQGTEVTVSS`
Result: low polyreactivity

As a next step, examine the sequence that follows.
Query: Output polyreactivity (PSR sort gate) of `QVQLQESGGGLVQAGGSLRLSCAASGSISNSAAKVWYRQAPGKERELVVSIGHGASSNYADSVKGRFTISRDNAKNTVYLQMNSLKPEDTAVYYCAAYPGFLDGFFYWGQSTQVTVSS`
Result: high polyreactivity

---

Test: yeast display, Sf9 membrane polyspecificity reagent, FACS + sequencing; frameworks hold sequencing errors
METRIC_NAME: polyreactivity (PSR sort gate)

These recorded examples may help you get a feel for the data.
Query: Complete the entry with polyreactivity (PSR sort gate) for `QVQLVESGGGLVQAGGSLRLSCAASGSTFGLNAMGWYRQAPGKERELVAAITSGGTYYADSVKGRFTISRDNAKNTVYLQMNSLKPEDTAVYYCAADGTWSIYGGLYYWGQGTQVTVSS`
Result: low polyreactivity

Query: Determine its reported polyreactivity (PSR sort gate): `QVQLVESGGGLVQAGGSLRLSCASSGNIFRYYVMGWYRKAPGKEREFVAAITSSGGSTYYADSVKGRFTISRDNAKNTVYFQINSLKPDDSEVYYCAKDYWDPGWAEYDYWGQCTQVTVSS`
Result: low polyreactivity

Query: Let me know recorded polyreactivity (PSR sort gate) for `QVQLVESGGGLVQAGGSLRLTCAASGRIFLINAMGWYRPAPGKERDLVATISRSGASTDYADSVKGRFTISRDNAKYIVYLQMKSMKPEDTAVYYCNAKVYKRRVVPYDYWGQGSQVTVSS` , thanks.
Result: high polyreactivity

Query: Respond only with polyreactivity (PSR sort gate) recorded for `QVQLVESGGGLVQAGGSLRLSCAASGFTLKYYAMGWYRQAPGKERELVAAITQRGGSTYADSVKGRFTISRDNAKNTVYLQMNSLKPEDTAFYFCAASSAKYRLYGGYDYWGQGTQVTVSS`
Result: high polyreactivity

Continuing:
Query: Quickly give me recorded polyreactivity (PSR sort gate) for `QVQLVESGGGLVQAGGSLRLSCAASGFTSAYNAMGWYRQAPGKERELVATISFRGSSTYYADSVKGRFTISRDNAKNTVYLQMNSQKPEDTAVYYCAADPYDARAVSEPVFFGHYDFWGQGTQVTVSS`
Result: low polyreactivity

Query: Query polyreactivity (PSR sort gate) for `QVQLVESGGGLVQAGGSLRLSCAASGRTLGWYAMGWYRQAPGKERELVATISITGGSTYYADSVKGRFTISRDNAKNTVYLQMNSLKPEDTAVYYCAARHGSRRRYYYWGQGTQVTVSS`
Result: high polyreactivity

Query: Supply measured polyreactivity (PSR sort gate) of `QVQLVESGGGLLQAGGSLRLSCAASGSTFHRNAMGWYRQAPGKERELVAAISWRAGSTYYADSVKGRFTISRDNAKNTVYLQMNSLKPEDTAVYYCNAVERYWDYGYWGQGTQVTVSS` in your reply.
Result: low polyreactivity

Query: Look up and report measured polyreactivity (PSR sort gate) for this entry: `QVQLVESGGGLVQAGGSLRLSCAASGSTFRYNAMGWYRQAPGKERELVAGISYRGGTTYYADSVKGRFTISRDNAKNTVYLQMNSLKPEDTAVYYCAADSRAKRYYWGQGTQVTVSS`
Result: high polyreactivity
